The measured values listed here are drawn from the supplement of paper PMC6555819.

- System: LXRb:RXRa (NR concentration 270 nM, RXRa partner concentration 90 nM)
- procedureDetails: PBM binding z-score (relative to random genomic background probes); higher = stronger binding; sequences stand for … in GC…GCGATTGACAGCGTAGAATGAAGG
Form field: PBM binding z-score (one value per entry).

Q: Entry "GGAACGAGGTCAAAGTTGATAGCATCTGTCGACG" has what PBM binding z-score?
Ans: 5.45

Q: Entry "CAGCATAGGTCAGGGCCAGTATAGGAGGAACGTT" has what PBM binding z-score?
Ans: 1.98

Q: Entry "GATACAGGGTCGGCTAGAGGCCAGAGTATGGAAA" has what PBM binding z-score?
Ans: 0.129

Q: Entry "AGTCAAAGTTGAGGACGAGGTAACGTAAAGCACG" has what PBM binding z-score?
Ans: -0.0986

* * *

Form field: PBM binding z-score (one value per entry).
- Tested on: PPARg:RXRa 30nM:10nM, anti-RXR (NR concentration 30 nM, RXRa partner concentration 10 nM)
- procedureDetails: PBM binding z-score (relative to random genomic background probes); higher = stronger binding; sequences stand for … in GC…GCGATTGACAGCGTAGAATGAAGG
// no unit string in output, number only

Examples from the recorded data:
CCTACTGGGTCACGAAAGGTCATTGATTCAGTGA | 5.23
AGAATGAGGTTACCAAAGGTCAGGGAAACGCTTG | 3.27
CCGACTGGGGCAAGGTCACCATAACGCACAGCCA | 2.12
CGTCCGAGGTCATAGGAGGTCAGTGAAGACAGAT | 2.81
TCTTGTAGATCAACAGGAGGTTAATAAAGATCGA | 2.71

Q: Entry "CGTCCAAGGTTAAGGTCAGTGAAAGAGACTCGAA" has what PBM binding z-score?
Ans: 0.541

Q: Entry "CTCGAAAGGTCATGCTCAGGTGAGTATACCAAAC" has what PBM binding z-score?
Ans: 4.38

* * *

- Tested on: PPARg DBDmut:RXRa IVT, anti-PPARg (DBD mutation: PPARg1 K132A/R137A, NR concentration 270 nM, RXRa partner concentration 90 nM)
- procedureDetails: PBM binding z-score (relative to random genomic background probes); higher = stronger binding; sequences stand for … in GC…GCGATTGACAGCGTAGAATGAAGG
Form field: PBM binding z-score (one value per entry).
// no unit string in output, number only

Q: Entry "GGAACGAGGGCATTCGAGTTCATAGCATGGCGAT" has what PBM binding z-score?
Ans: 0.143

* * *

- System: LXRb homodimer (NR concentration 270 nM)
- procedureDetails: PBM binding z-score (relative to random genomic background probes); higher = stronger binding; sequences stand for … in GC…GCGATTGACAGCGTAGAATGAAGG
Form field: PBM binding z-score (one value per entry).
// no unit string in output, number only

Examples from the recorded data:
ATATGTAGGTTAGCTGGGGTCATTCACACTAGGC | 1.66
CGTCAAAGATCAAGGTAACGTAACAGAAAGCAGC | -0.677
ATATGTAGGTTAACTGGGGTCATTCAGACTAGGC | 1.43
TTGCCAAGGTGAAAGGTCGTTGATGCACGCCTTG | -0.723
TCTTGTAGATCAATAGAAGTTAAGAAAGTGCGCT | 0.0744
CGAACGAGGTCATTGACAGGACAGTGAATAGTAA | 1.44
CGTCCAAGGACAATGCTAGGTCAGTGAAAGCATT | -0.885
CGTCAAAGGTCAAAGGTCAGTGAAGAGATGACGG | 4.46
CGAACAAGGTCATTGACAGGACAGTGAATAGTAA | 1.12
CAAACTAGGTCACAGTGGTCAAAGTCCGTGCGTA | -0.0137

Q: Find PBM binding z-score (LXRb homodimer (NR concentration 270 nM)) for the entry "CCTACTGGACCAAGGTCATTGATCAGTCAAAGCA"
Ans: 0.618

Q: Find PBM binding z-score (LXRb homodimer (NR concentration 270 nM)) for the entry "TATTCAGGGTCAAAGGCCAGAGTACGAATGTCGA"
Ans: 5.04

Q: Find PBM binding z-score (LXRb homodimer (NR concentration 270 nM)) for the entry "CCTACTGGGCCACGAAAGGCCATTGATTCAGTGA"
Ans: -0.835

Q: Find PBM binding z-score (LXRb homodimer (NR concentration 270 nM)) for the entry "CGTCCAAGGTCATAGGAGGTCAATGAAGACAGAT"
Ans: 1.44

Q: Find PBM binding z-score (LXRb homodimer (NR concentration 270 nM)) for the entry "CCTAGTTGTTCAGGAGGTCACACACCGGATATGA"
Ans: 1.61

* * *

- Test system: PPARg:RXRa DBDmut IVT, anti-RXR (DBD mutation: RXRa K156A/R161A, NR concentration 270 nM, RXRa partner concentration 90 nM)
- procedureDetails: PBM binding z-score (relative to random genomic background probes); higher = stronger binding; sequences stand for … in GC…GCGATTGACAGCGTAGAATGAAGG
experimentalReadout: PBM binding z-score
// no unit string in output, number only

Examples from the recorded data:
TTACCAAGGTCAAGGTCGTTGATCCCTCTGTAGA | 3.67
ATCGAAAGGTCGAAGGTGCGTATACCCACCCGAA | -0.0152
CGTCAAAGGTCAAAGGTCAGTGAAGAGATGACGG | 5.34

Next sequence, PBM binding z-score to be filled in.
Q: Entry "CAAACCAGGTCACAGAGGTCAAAGTCCGTGCGTA" has what PBM binding z-score?
Ans: 6.56

* * *

- System: PPARg:RXRa 30nM:10nM, anti-RXR (NR concentration 30 nM, RXRa partner concentration 10 nM)
- procedureDetails: PBM binding z-score (relative to random genomic background probes); higher = stronger binding; sequences stand for … in GC…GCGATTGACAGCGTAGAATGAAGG
Classes (PBM binding z-score): range 1: < 1; range 2: ≥ 1 and < 5; range 3: ≥ 5

AGTCAAAGTGCATCTAGGTAACGTAAGATATGCT | range 1
CGTCAAAGTTCAACTAAGGTCACGTAAAGCACGC | range 2
GGAACGAGGTCAAGTTGATAGCAGAGTTTGATGG | range 2
CGTTCAAGGTCAAAGGTCAGTGAAGAGATGACGG | range 3
CCTACTGGGCCAAAGGTGATTGATTCCAATGCTC | range 3

Q: For the record "CGAACTAGGTCAAGGGACAGTGAAAGGCGACGTA" , report the class its PBM binding z-score corresponds to.
Ans: range 3

* * *

- System: THRa:RXRa (NR concentration 90 nM, RXRa partner concentration 90 nM)
- procedureDetails: PBM binding z-score (relative to random genomic background probes); higher = stronger binding; sequences stand for … in GC…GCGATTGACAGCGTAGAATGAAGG
Form field: PBM binding z-score (one value per entry).
// no unit string in output, number only

Examples from the recorded data:
CGAACGAGGTCATGAGTTGATAGCAAATGCCGAT | 4.26
TGTCAAAGTTCAAAGGTTACGTAAGTATCCACAC | 4.44
CAAACTAGGTCACAAAAGGTCAAAGTCGAATGAC | 4.76

Next sequence, PBM binding z-score to be filled in.
Q: Entry "CAAACTAGTTCAAGAGGTCAAAGTCCGCTTCCCG" has what PBM binding z-score?
Ans: 3.77

* * *

Form field: PBM binding z-score (one value per entry).
- System: PPARg homodimer (NR concentration 180 nM)
- procedureDetails: PBM binding z-score (relative to random genomic background probes); higher = stronger binding; sequences stand for … in GC…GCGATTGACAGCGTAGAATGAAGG

ATATGTAGGTCAAGGGTCATTCAGGTTGGTTCGC | 4.44
ACTCGGAGGTCAAAGGTCAGAGCTACGCCAGTGA | 6.27
TAGCCGAGGTCATTCAGGGGCCAGTATAGAAAGC | 4.27
TAGCCTAGGTCATGGGCCAGTGTACCACGCGAAC | 1.42
CTACCAAGGTCAACAAGGTCGTTGATTACTATTC | 4.44

Q: Entry "TATCAAAGTTCAAAGGTAACGTAAGTATCCACAC" has what PBM binding z-score?
Ans: 2.55

Q: Entry "TCGAGTAGGTCACGGGGGCATTCAGGGATGAAGA" has what PBM binding z-score?
Ans: 3.98

Q: Entry "CGTCCAAAGTCAAAGGTCAGTGAAGAGATGACGG" has what PBM binding z-score?
Ans: 3.27

Q: Entry "CGTCCAAGGTCAAAGGTCATTGAAGAGATGACGG" has what PBM binding z-score?
Ans: 5.55

Q: Entry "CCTTACGGGTCACTCCAGGTCATAGCATCGGAGT" has what PBM binding z-score?
Ans: 2.14
